B1: glmS ribozyme (parent)
chain: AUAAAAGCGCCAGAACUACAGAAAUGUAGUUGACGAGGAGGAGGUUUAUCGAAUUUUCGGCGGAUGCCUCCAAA

Variants of: B1
Experiment: self-cleavage kobs at 2500 uM GlcN6P; higher = faster cleavage; RNA array
Conditions: with glucosamine-6-phosphate
This sample holds only a part of the variants without activity.
Catalogue of variants with associated self-cleavage kobs at 2500 uM GlcN6P
Measurement type: self-cleavage kobs at 2500 uM GlcN6P

INSERT INTO results (mutation_descriptor, measurement_type, assay_value) VALUES
  ('C16U G29C A64G G66C', 'self-cleavage kobs at 2500 uM GlcN6P', '0.000347 s⁻¹'),
  ('C10U A42C G63A', 'self-cleavage kobs at 2500 uM GlcN6P', '< 1e-05 s⁻¹'),
  ('C10G C34G A48C', 'self-cleavage kobs at 2500 uM GlcN6P', '< 1e-05 s⁻¹'),
  ('G37U G38A A42C', 'self-cleavage kobs at 2500 uM GlcN6P', '< 1e-05 s⁻¹'),
  ('G13U A36U G43A G51A C67G C70U', 'self-cleavage kobs at 2500 uM GlcN6P', '< 1e-05 s⁻¹'),
  ('A39U U57C', 'self-cleavage kobs at 2500 uM GlcN6P', '4.56e-05 s⁻¹'),
  ('G37A U49A', 'self-cleavage kobs at 2500 uM GlcN6P', '< 1e-05 s⁻¹'),
  ('C11U A15C G63U U65A C67A', 'self-cleavage kobs at 2500 uM GlcN6P', '< 1e-05 s⁻¹'),
  ('C34U A52C A64U C67U', 'self-cleavage kobs at 2500 uM GlcN6P', '< 1e-05 s⁻¹'),
  ('A15G A33C', 'self-cleavage kobs at 2500 uM GlcN6P', '0.000213 s⁻¹'),
  ('G40C U54G C70U', 'self-cleavage kobs at 2500 uM GlcN6P', '0.000933 s⁻¹'),
  ('U31G A52U G62U C67G', 'self-cleavage kobs at 2500 uM GlcN6P', '< 1e-05 s⁻¹'),
  ('G9C A12G', 'self-cleavage kobs at 2500 uM GlcN6P', '< 1e-05 s⁻¹'),
  ('C11G U46G C61A G66A', 'self-cleavage kobs at 2500 uM GlcN6P', '< 1e-05 s⁻¹'),
  ('U45G G60A C67G C68U', 'self-cleavage kobs at 2500 uM GlcN6P', '< 1e-05 s⁻¹'),
  ('A12G A42C G59U G63U', 'self-cleavage kobs at 2500 uM GlcN6P', '< 1e-05 s⁻¹'),
  ('A53G A64C', 'self-cleavage kobs at 2500 uM GlcN6P', '0.000109 s⁻¹'),
  ('G37C A53G', 'self-cleavage kobs at 2500 uM GlcN6P', '5.73e-05 s⁻¹'),
  ('G62U U69G', 'self-cleavage kobs at 2500 uM GlcN6P', '0.000214 s⁻¹'),
  ('A39C G44C C67A', 'self-cleavage kobs at 2500 uM GlcN6P', '0.000176 s⁻¹'),
  ('C11U A15C U31C', 'self-cleavage kobs at 2500 uM GlcN6P', '0.000159 s⁻¹'),
  ('G51U A52U U65G', 'self-cleavage kobs at 2500 uM GlcN6P', '< 1e-05 s⁻¹'),
  ('G9C G41C', 'self-cleavage kobs at 2500 uM GlcN6P', '< 1e-05 s⁻¹'),
  ('G44A U54C U65G C68G', 'self-cleavage kobs at 2500 uM GlcN6P', '< 1e-05 s⁻¹'),
  ('C8A A48C U49A', 'self-cleavage kobs at 2500 uM GlcN6P', '< 1e-05 s⁻¹'),
  ('C8U G32U G62U C71U', 'self-cleavage kobs at 2500 uM GlcN6P', '< 1e-05 s⁻¹'),
  ('A12C G37U A52G', 'self-cleavage kobs at 2500 uM GlcN6P', '< 1e-05 s⁻¹'),
  ('G26U G66U', 'self-cleavage kobs at 2500 uM GlcN6P', '0.000774 s⁻¹'),
  ('A52G C68U C70U', 'self-cleavage kobs at 2500 uM GlcN6P', '0.000745 s⁻¹'),
  ('U30C C50A U65A U69G', 'self-cleavage kobs at 2500 uM GlcN6P', '5.84e-05 s⁻¹'),
  ('A15U C71G', 'self-cleavage kobs at 2500 uM GlcN6P', '0.000157 s⁻¹'),
  ('G32U U56A', 'self-cleavage kobs at 2500 uM GlcN6P', '0.000494 s⁻¹'),
  ('G9U C11G', 'self-cleavage kobs at 2500 uM GlcN6P', '< 1e-05 s⁻¹'),
  ('A15C G32U C34U', 'self-cleavage kobs at 2500 uM GlcN6P', '< 1e-05 s⁻¹'),
  ('A12U U54A', 'self-cleavage kobs at 2500 uM GlcN6P', '0.0233 s⁻¹'),
  ('A14G G44C', 'self-cleavage kobs at 2500 uM GlcN6P', '0.000239 s⁻¹'),
  ('A14C A33G G35C G38C G44A A48U C50U', 'self-cleavage kobs at 2500 uM GlcN6P', '< 1e-05 s⁻¹'),
  ('G29U U65A C68G', 'self-cleavage kobs at 2500 uM GlcN6P', '3.55e-05 s⁻¹'),
  ('A12C U30A G60A', 'self-cleavage kobs at 2500 uM GlcN6P', '< 1e-05 s⁻¹'),
  ('G38U U69G', 'self-cleavage kobs at 2500 uM GlcN6P', '7.1e-05 s⁻¹'),
  ('A6G U30C G44U A52C G63U', 'self-cleavage kobs at 2500 uM GlcN6P', '< 1e-05 s⁻¹'),
  ('C8A U45G U54G G66A', 'self-cleavage kobs at 2500 uM GlcN6P', '< 1e-05 s⁻¹'),
  ('C8U G13A A15G', 'self-cleavage kobs at 2500 uM GlcN6P', '< 1e-05 s⁻¹'),
  ('A14U A52C A53G U55C U57G', 'self-cleavage kobs at 2500 uM GlcN6P', '< 1e-05 s⁻¹'),
  ('C10A C50G G63C', 'self-cleavage kobs at 2500 uM GlcN6P', '7.48e-05 s⁻¹'),
  ('C11U U49C U56G', 'self-cleavage kobs at 2500 uM GlcN6P', '< 1e-05 s⁻¹');
